- assay text: autophagy modulators in MEF cells, primary screen, imaging, high-content, MEF GFP-LC3 (AID 463193);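 further: spot-positive cell cutoff set from DMSO-treated cells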
- details: MEF GFP-LC3 puncta imaging, at 10 µM; hits give high values
Hit rate of the full screen: of about 190,000 compounds, about 1,900 (1%) were called active. Only a selection was taken, and actives are over-represented in it overall.
property name: % cells with GFP-LC3 spots (%)
Please reply with the bare figure in % and do not write the unit itself.

Give the measured % cells with GFP-LC3 spots of CCOc1ccc(/C=N/NC(N)=S)cc1 .
19.6

And CCn1c(-c2cc(OC)ccc2OC)csc1=Nc1c(C)n(C)n(-c2ccccc2)c1=O ?
12.4

And CCCCS(=O)c1snnc1C (configuration not stated) ?
3.68

And C=CCn1c(CCNC(=O)c2ccccc2F)nnc1SCC(=O)Nc1ccc(OC)cc1 ?
1.65

And CC1CC2=C(CC1/C=N/NC(N)=S)C(C)(C)CCC2 (configuration not stated) ?
39.4

And CCC(CC)NC(=O)CSc1nnc(-c2c[nH]c3ccccc23)o1 ?
15.7

And CCCOC(=O)c1[nH]c2c(c1C)C(=O)CC(c1cccs1)C2 (configuration not stated) ?
19

And CC1(C)CCCC2=C1CC1C(=O)N(c3ccccc3)C(=O)C1C2 (configuration not stated) ?
3.25

And Cc1ccc(Nc2nnc(SCc3ccccc3)s2)cc1 ?
12.4

And COc1ccc(S(=O)(=O)Nc2c(C)n(C)n(-c3ccccc3)c2=O)cc1 ?
4.67

And Nc1ccc(Nc2ccccc2)cc1 ?
3.14

And CCOC(=O)c1c(NC(=O)C(C)Sc2c[nH]c3ccccc23)sc2c1CCC2 (configuration not stated) ?
5.48

====

- assay text: autophagy modulators in MEF cells, primary screen, imaging, high-content, MEF GFP-LC3 (AID 463193);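 further: spot-positive cell cutoff set from DMSO-treated cells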
- details: MEF GFP-LC3 puncta imaging, at 10 µM; hits give high values
In all, about 190,000 compounds went through this assay and about 1,900 (1%) were called active. This is one part of a sample in which actives are shown more often than they occur.
Could you please report measured % cells with GFP-LC3 spots for the items listed next?
Please reply with the bare figure in % and do not write the unit itself.

Give the measured % cells with GFP-LC3 spots of CC(Oc1ccc(F)cc1F)C(=O)/C=C/N(C)C (stereo not given) .
6.77

And C/C(=N\NC(=O)c1ccc(NS(=O)(=O)c2cccs2)cc1)c1ccc2ccccc2c1 ?
20.7

And COC(=O)c1sc(N)c(C(=O)OC)c1COC(=O)CNS(=O)(=O)c1ccc(C)cc1 ?
2.17

And C=CCOc1c(Br)cc(/C=N\n2nnnc2N)cc1OC ?
6.77

And O=C(CN1C(=O)C2C3CCC(C3)C2C1=O)Oc1ccc2ccccc2c1 (stereo not given) ?
18.4

And CSc1ccc(/C=N\NC(=O)CC(=O)NC(C)C)cc1 ?
3.73

And CC[C@H]1OC(=O)[C@H](C)[C@@H](O[C@H]2C[C@@](C)(OC)[C@@H](O)[C@H](C)O2)[C@H](C)[C@@H](O[C@@H]2O[C@H](C)C[C@H](N(C)C)[C@H]2O)[C@](C)(O)C[C@@H](C)[C@@H]2N[C@@H](COCCOC)O[C@H]([C@H]2C)[C@]1(C)O ?
10.6

And CC(Oc1ccccc1F)C(=O)NN (stereo not given) ?
38

And CCOC(=O)c1c(NC(=O)Cn2nc(C(F)(F)F)cc2C)sc2c1CCC2 ?
7.63

And O=C(NCc1ccncc1)C(=O)NCc1ccco1 ?
0.301

And COC(=O)c1c(C)[nH]c(C)c1-c1ccc([N+](=O)[O-])cc1 ?
18.2

And CC1=CC(C)(C)Nc2ccc(OC(=O)CN3C(=O)C4CCCCC4C3=O)cc21 (stereo not given) ?
8.28

And O=C(CS(=O)(=O)c1ccccc1)Nc1ccc(S(=O)(=O)Nc2ccccn2)cc1 ?
0.85

And CSc1ccc(CCNC(=O)C2CCN(c3nnc(-n4cccc4)s3)CC2)cc1 ?
4.67

And Fc1ccc2nc(-c3ccccc3)nc(SCc3nnc(-c4ccccc4)o3)c2c1 ?
4.88

And CC(=O)c1ccc(N=C2SCCCN2C(=O)C2CCCCC2)cc1 ?
1.47

And Cc1ccc(Cl)cc1N1CCN(C(=O)c2cccc3c(=O)c(C)c(-c4ccccc4)oc23)CC1 ?
3.68

And CCOC(=O)C1CCCN(C(=O)c2cncc(Br)c2)C1 (stereo not given) ?
9.51

And COc1ccc(OC)c(NC(=S)N2CCc3ccccc3C2)c1 ?
1.08

And COC(=O)c1nc2n(n1)C(c1ccc([N+](=O)[O-])cc1)C(C(=O)Nc1ccc(Cl)cc1)=C(C)N2 (stereo not given) ?
5.34
